Every entry's value here was drawn from patent EP4585618A1.

target: T1, His-tagged ILT4 protein extracellular domain: ILT4-His (human, UniProt Q8N423 22-460); assay: SPR (Biacore), antibody captured on Protein A chip, ILT4-His as analyte, 1:1 model
T1 construct: Expressed in 293 cells; also called human ILT4-His protein
T1 sequence (Q8N423 other isoform, or with tags, fused parts or gaps limits assumed): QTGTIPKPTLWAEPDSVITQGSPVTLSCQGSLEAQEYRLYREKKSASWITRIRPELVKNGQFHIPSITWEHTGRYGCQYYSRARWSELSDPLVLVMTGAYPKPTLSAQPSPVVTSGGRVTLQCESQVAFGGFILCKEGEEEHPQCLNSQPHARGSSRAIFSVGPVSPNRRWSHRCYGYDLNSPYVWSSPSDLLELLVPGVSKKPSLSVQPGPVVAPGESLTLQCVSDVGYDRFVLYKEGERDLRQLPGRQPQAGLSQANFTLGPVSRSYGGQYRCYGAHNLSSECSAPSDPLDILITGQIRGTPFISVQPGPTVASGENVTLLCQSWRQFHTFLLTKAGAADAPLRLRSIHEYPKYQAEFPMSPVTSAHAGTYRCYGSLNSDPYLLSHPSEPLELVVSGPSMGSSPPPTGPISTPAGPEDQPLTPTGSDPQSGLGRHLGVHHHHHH
metric_name: kon (M⁻¹ s⁻¹)
Value expressed in M⁻¹ s⁻¹; do not type the unit.

I am curious: what kon value has been reported for fully human-derived antibody P2m (antibody, human IgG1, kappa, L234A L235A, V domains shown, Full chains) VH: QVQLVQSGAEVKKPGSSVKVSCKASGYTFTSYDISWVRQAPGQGLEWMGGIIPIFGTANYAQKFQGRVTITADESTSTAYMELSSLRSEDTAVYYCTAGIFLATAYWGQGTLVTVSS VL: DIQMTQSPSSMSASVGDRVTISCQASQDIQNYLNWYQQRPGQAPKLLIYDASTLETGVPSRFSGSGSGTYFTLTISSLQPEDVATYYCQQYENVPITFGQGTRLEIKR ?
2.03e+06

I am curious: what kon value has been reported for humanized antibody huP2-C6 (antibody, human IgG1, kappa, L234A L235A, V domains shown, Full chains; also called P2-C6H7L1) VH: EVQLVQSGAEVKKPGASVKVSCKASGYTFTDYYIHWVRQAPGQGLEWMGYIYPDTGYSGYNQKFKGRVTMTVDKSTSTAYMELRSLRSDDTAVYYCTRRGDYSGVHFDYWGQGTTVTVSS VL: DIVLTQSPDSLAVSLGERATINCRASESVNNYGVGFLHWYQQKPGQPPKLLIYRASTLESGIPDRFSGSGSGTDFTLTISSLQAEDVAVYYCQHSYKDPPWTFGGGTKVEIKR ?
1.21e+06

I am curious: what kon value has been reported for humanized antibody huP1-D7 (antibody, human IgG4 S228P, kappa, F234A L235A, V domains shown, Full chains; also called P1-D7H1L1) VH: EVQLVQSGAEVKKPGASVKVSCKASGYTFTTYGMNWVRQAPGQGLEWMGWINTYSGVPTYAEDFKGRVTMTTDTSTSTAYMELRSLRSDDTAVYYCARRTDYDGYVMDSWGQGTTVTVSS VL: DIVMTQSPDSLAVSLGERATINCKSSQSLFYSGNQKNYLAWYQQKPGQSPKLLLYWASTRESGVPDRFSGSGSGTDFTLTISSLQAEDVAVYYCQQYFSYPPTFGGGTKVEIKR ?
2.59e+06

I am curious: what kon value has been reported for positive control antibody MK (sequences from WO2018187518A1) (antibody, human IgG4 S228P, lambda, V domains shown) VH: EVQLQQWGAGLLKPSETLSLTCAVYGGSFSGYYWSWIRQPPGKGLEWIGEINHAGSTNYNPSLKSRVTISVDTSKNQFSLKLSSVTAADTAVYYCARLPTRWVTTRYFDLWGRGTLVTVSS VL: ESVLTQPPSVSGAPGQRVTISCTGSSSNIGAGYDVHWYQQLPGTAPKLLIYGDSNRPSGVPDRFSVSKSGASASLAITGLQAEDEADYYCQSFDNSLSAYVFGGGTQLTVLG ?
452000

Turning now to a further record.
I am curious: what kon value has been reported for humanized antibody huP2-E8 (antibody, human IgG4 S228P, kappa, F234A L235A, V domains shown, Full chains; also called P2-E8H4L1) VH: EVQLVESGGGLVKPGGSLRLSCAASGFTFSDYGIHWVRQAPGKGLEWVAYISSGSSIHNYADTVKGRFTISRDNAKNSLYLQMNSLRAEDTAVYYCARGPNYYGSSYLLVYWGQGTLVTVSS VL: DIQMTQSPSSLSASVGDRVTITCKASQDVNIAVAWYQQKPGKAPKLLIYSASYRYTGVPSRFSGSGSGTDFTFTISSLQPEDIATYYCQQHYNIPWTFGGGTKVEIKR ?
222000
